assay: Pharmacokinetics and total colon distribution after single oral administration; assay type: in vivo, male C57BL/6 mice; details: male, C57BL/6, mouse, blood; mice, 8 h; Ex. 16 measured after oral 5 mg/kg of Ex. 19 (Na salt); read-out: Mean blood concentration
property-label: concentration at 8 h (ng/mL)
Numeric only. Scale: ng/mL

What the record says about COc1cc(Nc2cc(Oc3ccc(NC(=O)Nc4cc(C(C)(C)C)cc(NS(C)(=O)=O)c4OC)c4ccccc34)ccn2)ccc1C(=O)NCCOCCOCCO : concentration at 8 h is 0.2

----------
Tested on: Jurkat cells
Test: Cell cytotoxicity assay (r)
Format: cell-based, human
Conditions: 24 hours, 1 μg/mL
Experimental: 1×10^5 Jurkat cells (immortalised human T lymphocytes) are added to the appropriate number of wells of a 96 well plate in 100 μL of media (RPMI supplemented with 10% foetal bovine serum). […] After 15 minutes, cells are analysed by flow cytometry (BD accuri) using the FL3 window. The % viability is calculated as the % of cells that are PI negative in the test wells normalised to the DMSO control.
% Viability at 1 μg/mL less than 90% is y; % Viability at 1 μg/mL greater than or equal to 90% is n.

These solved cases illustrate the format of a correct answer.
COc1cc(Nc2cc(Oc3ccc(NC(=O)Nc4cc(C(C)(C)C)cc(NS(C)(=O)=O)c4OC)c4ccccc34)ccn2)ccc1C(=O)NCC1CCN(C)CC1 n
COc1cc(Nc2cc(Oc3ccc(NC(=O)Nc4cc(C(C)(C)C)cc(NS(C)(=O)=O)c4OC)c4ccccc34)ccn2)cc(OC)c1C(=O)NCCCN1CCN(C)CC1 n
COc1cc(Nc2nccc(Oc3ccc(NC(=O)Nc4cc(C(C)(C)C)cc(NS(C)(=O)=O)c4OC)c4ccccc34)n2)ccc1S(N)(=O)=O n
COc1cc(Nc2cc(Oc3ccc(NC(=O)Nc4cc(C(C)(C)C)cc(NS(C)(=O)=O)c4OC)c4ccccc34)ccn2)ccc1S(=O)(=O)CCCN1CCN(C)CC1 y

With those in mind, consider the next compound.
I wonder whether CCC(=O)NS(=O)(=O)c1ccc(Nc2nccc(Oc3ccc(NC(=O)Nc4cc(C(C)(C)C)cc(NS(C)(=O)=O)c4OC)c4ccccc34)n2)cc1OC has % Viability at 1 μg/mL below 90%. Can you tell?
n

From: patent US9751837B2
